Entry source: paper PMC11277446

Target: PKL (Homo sapiens)
Construct: HepG2 KO cells were lysed and protein lysated with CelLytic M
Assay: Pyruvate kinase activity kinetic assay on HepG2 KO (PKL only) cell protein lysate
Conditions: read-out: IC50 of PKL enzymatic activity inhibition
pIC50: −log10 of the molar value.
measurement label: pIC50

(P) O=S(=O)(NCc1ccc(F)cc1)c1cc(O)c(O)cc1-c1ccc(O)c(O)c1 [12d]
(Q) O=S1(=O)c2cc(O)c(O)cc2-c2cc(O)c(O)cc2N1Cc1ccccc1 [15d]
(R) O=S(=O)(NCc1ccccc1)c1cc(O)c(O)cc1-c1ccc(O)c(O)c1
(S) O=S1(=O)c2cc(O)c(O)cc2-c2cc(O)ccc2N1Cc1ccc(F)cc1 [18a]
Input line: Sort the listed compounds above so the one with the largest pIC50 comes first and the smallest comes last. Output spec: labels arranged per the requested ranking.
Output line: R, Q, S, P
(R: 5.37, Q: 5.15, S: 4.94, P: 4.73)

(P) O=c1oc2cc(O)ccc2c2cc(O)c(O)cc12 [Urolithin C, urolithin C, reference compound]
(Q) O=S1(=O)c2cc(O)c(O)cc2-c2ccc(C(F)(F)F)cc2N1Cc1ccccc1 [15e]
(R) O=S1(=O)c2cc(O)c(O)cc2-c2cc(O)ccc2N1Cc1ccccc1 [15a]
Input line: Reorder the items by pIC50, least to greatest. Output spec: labels arranged per the requested ranking.
Output line: R, Q, P
(R: 4.76, Q: 4.97, P: 5.33)

====

Target: PKL (Homo sapiens, UniProt P30613)
Construct: HepG2 KO cells were lysed and protein lysated with CelLytic M; host or cells: HepG2 PKM CRISPR KO cells
Sequence (P30613 1-543 isoform P30613-2): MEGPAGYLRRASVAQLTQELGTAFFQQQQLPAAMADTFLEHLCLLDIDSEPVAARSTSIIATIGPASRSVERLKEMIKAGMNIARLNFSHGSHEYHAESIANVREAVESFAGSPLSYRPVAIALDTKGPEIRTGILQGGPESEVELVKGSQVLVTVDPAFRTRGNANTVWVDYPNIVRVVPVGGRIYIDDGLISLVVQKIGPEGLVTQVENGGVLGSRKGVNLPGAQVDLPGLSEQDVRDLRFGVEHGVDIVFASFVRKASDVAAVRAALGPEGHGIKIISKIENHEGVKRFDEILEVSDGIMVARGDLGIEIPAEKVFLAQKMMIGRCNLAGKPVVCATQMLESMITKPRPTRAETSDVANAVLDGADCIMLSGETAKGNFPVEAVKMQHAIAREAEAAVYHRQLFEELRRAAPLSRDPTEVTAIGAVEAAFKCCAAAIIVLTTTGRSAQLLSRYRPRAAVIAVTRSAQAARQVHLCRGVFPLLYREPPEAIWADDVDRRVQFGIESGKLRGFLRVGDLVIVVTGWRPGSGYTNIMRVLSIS
Test: Pyruvate kinase activity kinetic assay on HepG2 KO (PKL only) cell protein lysate
Assay type: biochemical
measurement label: inhibition at 10 µM (%)

[
  {
    "compound": "O=S1(=O)c2cc(O)c(O)cc2-c2ccc(C(F)(F)F)cc2N1Cc1ccccc1 [15e]",
    "assay system": "PKL (Homo sapiens, UniProt P30613)",
    "measure unit": "%",
    "inhibition at 10 µM": 42.9
  },
  {
    "compound": "O=S(=O)(NCc1ccc(F)cc1)c1cc(O)c(O)cc1-c1ccc(O)c(O)c1 [12d]",
    "assay system": "PKL (Homo sapiens, UniProt P30613)",
    "measure unit": "%",
    "inhibition at 10 µM": 44.1
  },
  {
    "compound": "O=S1(=O)c2cc(O)c(O)cc2-c2cc(O)c(O)cc2N1Cc1ccccc1 [15d]",
    "assay system": "PKL (Homo sapiens, UniProt P30613)",
    "measure unit": "%",
    "inhibition at 10 µM": 29.8
  },
  {
    "compound": "O=c1oc2cc(O)ccc2c2cc(O)c(O)cc12 [Urolithin C, urolithin C, reference compound]",
    "assay system": "PKL (Homo sapiens, UniProt P30613)",
    "measure unit": "%",
    "inhibition at 10 µM": 33
  },
  {
    "compound": "O=S1(=O)c2cc(O)c(O)cc2-c2cc(O)ccc2N1Cc1ccc(F)cc1 [18a]",
    "assay system": "PKL (Homo sapiens, UniProt P30613)",
    "measure unit": "%",
    "inhibition at 10 µM": 50.8
  },
  {
    "compound": "O=S1(=O)c2cc(O)c(O)cc2-c2cc(O)ccc2N1Cc1ccccc1 [15a]",
    "assay system": "PKL (Homo sapiens, UniProt P30613)",
    "measure unit": "%",
    "inhibition at 10 µM": 47.6
  },
  {
    "compound": "O=S(=O)(NCc1ccccc1)c1cc(O)c(O)cc1-c1ccc(O)c(O)c1",
    "assay system": "PKL (Homo sapiens, UniProt P30613)",
    "measure unit": "%",
    "inhibition at 10 µM": 40.9
  }
]
